test system: LXRa homodimer (NR concentration 270 nM); test: PBM binding z-score (relative to random genomic background probes); higher = stronger binding; sequences stand for … in GC…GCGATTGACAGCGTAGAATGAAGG

{"Sequence Chain": "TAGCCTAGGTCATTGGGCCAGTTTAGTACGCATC", "Assay System": "LXRa homodimer (NR concentration 270 nM)", "PBM binding z-score": 0.757}
{"Sequence Chain": "ATACCAAGGTGATCGTGAGGACGTTGATACTAAC", "Assay System": "LXRa homodimer (NR concentration 270 nM)", "PBM binding z-score": -0.00187}
{"Sequence Chain": "TCTAGCAGGCCAGAGGGTCAATCAAGAGGTACGG", "Assay System": "LXRa homodimer (NR concentration 270 nM)", "PBM binding z-score": -0.494}
{"Sequence Chain": "TCTTGTAGATCAACCAGGTTAAGAAAGCCTGAGT", "Assay System": "LXRa homodimer (NR concentration 270 nM)", "PBM binding z-score": -0.188}
{"Sequence Chain": "AGTCAAAGTTCAGGACCAGGTAACGTAAAGCACG", "Assay System": "LXRa homodimer (NR concentration 270 nM)", "PBM binding z-score": 1.19}
{"Sequence Chain": "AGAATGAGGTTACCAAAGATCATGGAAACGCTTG", "Assay System": "LXRa homodimer (NR concentration 270 nM)", "PBM binding z-score": -0.149}
{"Sequence Chain": "GCTTGCAGGCCATTTGGGTCACTCAATGACGGGC", "Assay System": "LXRa homodimer (NR concentration 270 nM)", "PBM binding z-score": -0.325}
{"Sequence Chain": "AACGAAAGGTCGTGAGGTGAGTATACAGAAAGGC", "Assay System": "LXRa homodimer (NR concentration 270 nM)", "PBM binding z-score": 0.174}
{"Sequence Chain": "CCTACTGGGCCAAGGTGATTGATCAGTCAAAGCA", "Assay System": "LXRa homodimer (NR concentration 270 nM)", "PBM binding z-score": -0.784}
{"Sequence Chain": "TGAATGAGCTTAAAGATCAGGGAACGTGGCGTCG", "Assay System": "LXRa homodimer (NR concentration 270 nM)", "PBM binding z-score": -0.642}
{"Sequence Chain": "CCTAACGGGTCACTGACAGGTTATAGCATTTGGA", "Assay System": "LXRa homodimer (NR concentration 270 nM)", "PBM binding z-score": 0.268}
{"Sequence Chain": "CGAACGAGGGCATGAGTTGATATCAAATGCCGAT", "Assay System": "LXRa homodimer (NR concentration 270 nM)", "PBM binding z-score": -0.371}
{"Sequence Chain": "ACTCGGAGGACAACGGTCAGAGCTACGCCAGTGA", "Assay System": "LXRa homodimer (NR concentration 270 nM)", "PBM binding z-score": -0.37}
{"Sequence Chain": "CCTGATAGGTCAATGGTCAGCTAAAGCAGCTCGC", "Assay System": "LXRa homodimer (NR concentration 270 nM)", "PBM binding z-score": 0.776}
{"Sequence Chain": "ATACCAAGGTGATAGTGAGGTCGTTGATACTAAC", "Assay System": "LXRa homodimer (NR concentration 270 nM)", "PBM binding z-score": 0.943}
